- system: PDE1A (Homo sapiens, UniProt P54750)
pIC50: −log10 of the molar value.
readout: pIC50

{"columns": ["compound", "value"],
 "data": [
  ["Cc1nn(C2CCCCC2)c2nc(C3CN(C(=O)NCc4ccccc4)C3)[nH]c(=O)c12 [Example 24]", "7.00 to 9.00"],
  ["O=c1[nH]c(C2CN(c3nc(CN4CCOCC4)cs3)C2)nc2c1cnn2C1CCCCC1 [Example 142]", "6.30 to 7.00"],
  ["Cc1nn(C(C)(C)C)c2nc(C3CN(C(=O)Nc4ccc5c(c4)OCO5)C3)[nH]c(=O)c12 [Example 1]", "7.00 to 9.00"],
  ["O=C(NCCC(F)(F)F)N1CC(c2nc3c(cnn3C3CCCCC3)c(=O)[nH]2)C1 [Example 43]", "7.00 to 9.00"],
  ["O=c1[nH]c(C2CN(c3ncc(CN4CCCCCC4)s3)C2)nc2c1cnn2C1CCCCC1 [Example 138]", "6.30 to 7.00"],
  ["CN(C)c1cccc(NC(=O)N2CC(c3nc4c(cnn4C4CCCCC4)c(=O)[nH]3)C2)c1 [Example 7]", "7.00 to 9.00"],
  ["CN(C)c1cccc(C(=O)N2CCCC(c3nc4c(cnn4C4CCCCC4)c(=O)[nH]3)C2)c1 (centres unmarked) [Example 45]", "6.30 to 7.00"],
  ["O=C(NCCN1CCCC1)N1CC(c2nc3c(cnn3C3CCCCC3)c(=O)[nH]2)C1 [Example 84]", "6.00 to 6.30"],
  ["CC(C)(C)n1ncc2c(=O)[nH]c(C3CN(c4nc5cc(C(F)(F)F)ccc5[nH]4)C3)nc21 [Example 127]", "7.00 to 9.00"],
  ["COc1ccc(S(=O)(=O)N2CCCC(c3nc4c(c(C)nn4C4CCC4)c(=O)[nH]3)C2)cc1 (centres unmarked) [Example 70]", "6.30 to 7.00"],
  ["COc1cccc(N2CC(c3nc4c(cnn4C4CCCCC4)c(=O)[nH]3)C2)c1 [Example 166]", "6.30 to 7.00"],
  ["O=c1[nH]c(C2CN(c3nnc(-c4ccccc4)[nH]3)C2)nc2c1cnn2C1CCCCC1 [Example 158]", "7.00 to 9.00"],
  ["O=c1[nH]c(C2CCCN(S(=O)(=O)c3ccc(OC(F)(F)F)cc3)C2)nc2c1cnn2C1CCCCC1 (centres unmarked) [Example 105]", "5.82 to 6.00"],
  ["CC(C)(C)n1ncc2c(=O)[nH]c(C3CN(C(=O)OCC4CCCCC4)C3)nc21 [Example 117]", "7.00 to 9.00"],
  ["CC(C)N1CCN(c2ccc(-c3csc(N4CC(c5nc6c(cnn6C6CCCCC6)c(=O)[nH]5)C4)n3)cc2)CC1 [Example 161]", "7.00 to 9.00"],
  ["O=C(NC1CCCCC1)N1CC(c2nc3c(cnn3C3CCCCC3)c(=O)[nH]2)C1 [Example 23]", "7.00 to 9.00"],
  ["Cn1c(CN2CC(c3nc4c(cnn4C(C)(C)C)c(=O)[nH]3)C2)nc2ccccc21 [Example 171]", "6.00 to 6.30"],
  ["O=c1[nH]c(C2CCCN(Cc3ccccc3)C2)nc2c1cnn2C1CCCCC1 (centres unmarked) [Example 176]", "5.82 to 6.00"],
  ["CC(C)c1ccc(NC(=O)N2CC(c3nc4c(cnn4C4CCCCC4)c(=O)[nH]3)C2)cc1 [Example 18]", "7.00 to 9.00"],
  ["COc1cccc(C(=O)N2CC(c3nc4c(c(C)nn4C4CCCCC4)c(=O)[nH]3)C2)c1 [Example 52]", "6.30 to 7.00"],
  ["CC(C)(C)n1ncc2c(=O)[nH]c(C3CN(c4nc5ccc(Br)cc5[nH]4)C3)nc21 [Example 126]", "7.00 to 9.00"],
  ["Cc1nn(C2CCCCC2)c2nc(C3CCCN(S(=O)(=O)Cc4ccccc4)C3)[nH]c(=O)c12 (centres unmarked) [Example 103]", "5.82 to 6.00"],
  ["O=c1[nH]c(C2CN(c3ncc(CN4CCCCC4)s3)C2)nc2c1cnn2C1CCCCC1 [Example 135]", "6.30 to 7.00"],
  ["O=c1[nH]c(C2CCCN(c3ccc(C(F)(F)F)cn3)C2)nc2c1cnn2C1CCCCC1 (centres unmarked) [Example 154]", "5.82 to 6.00"],
  ["N#Cc1ccccc1N1CC(c2nc3c(cnn3C3CCCCC3)c(=O)[nH]2)C1 [Example 150]", "6.30 to 7.00"],
  ["Cc1ccc(S(=O)(=O)N2CCCC(c3nc4c(c(C)nn4C4CCCCC4)c(=O)[nH]3)C2)cc1 (centres unmarked) [Example 86]", "6.00 to 6.30"],
  ["CC(C)(C)n1ncc2c(=O)[nH]c(C3CN(CC(=O)Nc4ccccc4)C3)nc21 [Example 173]", "6.30 to 7.00"],
  ["O=C(NCCN1CCOCC1)N1CC(c2nc3c(cnn3C3CCCCC3)c(=O)[nH]2)C1 [Example 61]", "6.30 to 7.00"],
  ["CCCCCS(=O)(=O)N1CC(c2nc3c(cnn3C3CCCCC3)c(=O)[nH]2)C1 [Example 104]", "5.82 to 6.00"],
  ["Cc1nn(C2CCCCC2)c2nc(C3CN(C(=O)NCc4ccc(F)cc4)C3)[nH]c(=O)c12 [Example 27]", "7.00 to 9.00"],
  ["CC(C)(C)n1ncc2c(=O)[nH]c(C3CN(c4ccccn4)C3)nc21 [Example 163]", "6.30 to 7.00"],
  ["O=c1[nH]c(C2CN(c3nc(-c4ccccc4)co3)C2)nc2c1cnn2C1CCCCC1 [Example 132]", "7.00 to 9.00"]
]}
